Listing: Kd of selected binders
# assay system: T1, RAD-displayed Fragment 1A of human LGR5 (human)
# T1 construct: also called Frag1A
# T1 sequence (O75473 22-37, looked up): GSSPRSGVLLRGCPTH
# protocol details: bio-layer interferometry (Octet), captured RAD-displayed fragment
Please respond with the number in nM and leave the unit unwritten.

[[record]]
binder = "α-LGR5 clone 2-ADC (antibody, mouse IgG2b, kappa, V domains shown, MMAE coupled through a divinyl pyrimidine bridging linker inserted within the heavy chain-light chain disulphide linkages, drug-to-antibody ratio of 4, cleavable linker version; also called α-LGR5-ADC) VH: QVQLQQPGAELVKPGASVKLSCKASGYTFTNYWMQWVKQRPGQGLEWIGEIDPSDSYTNYNQKFKGKATLTVDTSSSTAYMQLSSLTSEDSAVYYCARSLSGYVDYWGQGTTLTVSS VL: DIQMTQTTSSLSASLGDRVTISCRASQDISNRLNWYQQKPDGTVKLLISYRSRLHSGVPSRFSGSGSGTDYSLTISNLEQEDIATYFCQQGNSLPPTFGGGTKLEVRR"
metric = "Kd"
assay_value = 2.7

[[record]]
binder = "α-LGR5 variant 4-ADC (antibody, human IgG1, kappa, V domains shown, MMAE coupled through a divinyl pyrimidine bridging linker inserted within the heavy chain-light chain disulphide linkages, drug-to-antibody ratio of 4, ADC version of humanized variant 4 (clone 2.4); also called α-LGR5v4-ADC) VH: QVQLVQSGAEVKKPGASVKVSCKASGYTFTNYWMQWVRQAPGQGLEWIGEIDPSDSYTNYNQKFQGRVTLTVDTSTSTAYMELSSLRSEDTAVYYCARSLSGYVDYWGQGTTVTVSS VL: EIVMTQSPATLSLSPGERATLSCRASQDISNRLNWYQQKPGQAVRLLISYRSRRHTGIPARFSGSGSGTDYTLTISSLEPEDFAVYYCQQGNSLPPTFGGGTKLEIKR"
metric = "Kd"
assay_value = 2


Could you now look at the following binder, please?
Need Kd of α-LGR5 variant 4 (antibody, human IgG1, kappa, V domains shown, Humanized antibody; also called α-LGR5v4; clone 2.4) VH: QVQLVQSGAEVKKPGASVKVSCKASGYTFTNYWMQWVRQAPGQGLEWIGEIDPSDSYTNYNQKFQGRVTLTVDTSTSTAYMELSSLRSEDTAVYYCARSLSGYVDYWGQGTTVTVSS VL: EIVMTQSPATLSLSPGERATLSCRASQDISNRLNWYQQKPGQAVRLLISYRSRRHTGIPARFSGSGSGTDYTLTISSLEPEDFAVYYCQQGNSLPPTFGGGTKLEIKR , thanks.
2
